studyTarget: PARP1 L713F-nLuc biosensor (HCT116)
experimentSummary: PARP1 L713F-nLuc/akaLuc ratio relative to DMSO control (biosensor stabilization) (fold change); higher = more PARP1 biosensor stabilization (target engagement / stabilizer), active = hit call of the paper
testConditions: stock concentration (mM; final µM = stock mM x 1): 10; 24 h
param class (str): category from PARP1 L713F-nLuc/akaLuc ratio; see ranges LOW = under 0.7, MEDIUM = from 0.7 up to 1, HIGH = 1 and over

{"compound": "Cn1cnc2c(F)c(Nc3ccc(Br)cc3F)c(C(=O)NOCCO)cc21", "answerLabel": "LOW"}
{"compound": "Cc1cc(Nc2cc(N3CCN(C)CC3)nc(Nc3ccc([N+](=O)[O-])cc3)n2)n[nH]1", "answerLabel": "HIGH"}
{"compound": "CN1CCCN(C(=O)c2cccc(-c3ccc(/C=C4/C(=O)Nc5ccc(Cl)cc54)o3)c2)CC1", "answerLabel": "MEDIUM"}
{"compound": "Cc1cc([C@@H](C)Nc2ccccc2C(=O)O)c2nc(N3CCOCC3)cc(=O)n2c1", "answerLabel": "LOW"}
{"compound": "N#Cc1c(N2CCCC2)nc(N)c2c(N)nc(N3CCCC3)cc12", "answerLabel": "HIGH"}
{"compound": "CC1(C)CNc2cc(NC(=O)c3cccnc3NCc3ccncc3)ccc21 [Motesanib Diphosphate (AMG-706)]", "answerLabel": "HIGH"}
{"compound": "O=C(c1cccc(Cl)c1F)N1CCN(Cc2cccc(Nc3nccs3)n2)CC1", "answerLabel": "HIGH"}
{"compound": "CN1CCN(c2cccc(Nc3nc4c(-c5ccc(S(C)(=O)=O)cc5)cccn4n3)c2)CC1", "answerLabel": "MEDIUM"}
{"compound": "COc1ccc(CN2CCC(c3ccc4nc(C(=O)N5CCN(Cc6ccc(C(F)(F)F)cc6)CC5)[nH]c4c3)CC2)cn1", "answerLabel": "LOW"}
{"compound": "S=c1[nH]cnc2nc[nH]c12", "answerLabel": "HIGH"}
{"compound": "CN(C)[C@H]1CN(C2CCc3cccc(F)c32)C[C@@H]1c1ccc(N2CCN(S(C)(=O)=O)CC2)cc1 (some centres undefined)", "answerLabel": "HIGH"}
{"compound": "C[C@@H]1CCN(C(=O)CC#N)C[C@@H]1N(C)c1ncnc2[nH]ccc12 [Tofacitinib]", "answerLabel": "MEDIUM"}
{"compound": "CC(=O)Nc1cccc(-n2c(=O)n(C3CC3)c(=O)c3c(Nc4ccc(I)cc4F)n(C)c(=O)c(C)c32)c1", "answerLabel": "LOW"}
{"compound": "N#Cc1cc2cc(CN3CCC(Nc4ncnc5sc(CC(F)(F)F)cc45)CC3)c(O)cc2n1Cc1cn[nH]c1", "answerLabel": "LOW"}
{"compound": "COc1cc(C)c(/C=C/C(C)=C/C=C/C(C)=C/C(=O)O)c(C)c1C", "answerLabel": "MEDIUM"}
{"compound": "COc1ccccc1C(=O)Nc1cc2c(cc1N1CCCC1)n(C)c(=O)n2C", "answerLabel": "MEDIUM"}
{"compound": "O=C(COc1cccc2c(=O)[nH]ccc12)c1ccccc1", "answerLabel": "HIGH"}

----------
studyTarget: PARP1 L713F-nLuc biosensor (HCT116) (UniProt P09874)
Sequence (P09874 whole entry L713F, looked up): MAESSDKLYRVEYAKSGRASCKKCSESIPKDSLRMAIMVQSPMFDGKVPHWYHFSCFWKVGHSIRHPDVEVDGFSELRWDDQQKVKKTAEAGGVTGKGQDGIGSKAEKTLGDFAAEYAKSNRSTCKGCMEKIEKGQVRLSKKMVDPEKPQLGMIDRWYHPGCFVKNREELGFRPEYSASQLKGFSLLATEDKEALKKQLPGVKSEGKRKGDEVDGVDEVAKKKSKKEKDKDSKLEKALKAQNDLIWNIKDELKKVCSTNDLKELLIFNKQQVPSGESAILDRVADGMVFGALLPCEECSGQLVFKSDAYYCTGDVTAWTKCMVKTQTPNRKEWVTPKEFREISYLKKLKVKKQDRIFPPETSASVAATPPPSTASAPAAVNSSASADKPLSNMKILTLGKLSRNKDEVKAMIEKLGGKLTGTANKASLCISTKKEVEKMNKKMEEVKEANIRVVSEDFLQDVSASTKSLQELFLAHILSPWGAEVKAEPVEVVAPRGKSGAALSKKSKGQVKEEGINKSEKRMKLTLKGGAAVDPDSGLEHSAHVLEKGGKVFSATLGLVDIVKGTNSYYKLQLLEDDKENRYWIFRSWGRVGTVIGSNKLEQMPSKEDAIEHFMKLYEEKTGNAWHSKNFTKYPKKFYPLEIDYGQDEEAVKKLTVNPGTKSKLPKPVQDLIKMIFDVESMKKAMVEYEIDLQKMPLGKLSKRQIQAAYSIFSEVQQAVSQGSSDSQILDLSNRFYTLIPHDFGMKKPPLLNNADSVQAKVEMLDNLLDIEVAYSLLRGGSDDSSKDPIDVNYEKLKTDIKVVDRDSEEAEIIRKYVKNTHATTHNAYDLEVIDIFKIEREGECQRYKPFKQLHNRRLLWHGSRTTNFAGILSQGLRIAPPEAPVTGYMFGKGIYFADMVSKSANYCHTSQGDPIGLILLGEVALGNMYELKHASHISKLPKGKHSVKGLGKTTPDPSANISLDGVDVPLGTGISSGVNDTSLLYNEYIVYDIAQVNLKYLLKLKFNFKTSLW
experimentSummary: PARP1 L713F-nLuc/akaLuc ratio relative to DMSO control (biosensor stabilization) (fold change); higher = more PARP1 biosensor stabilization (target engagement / stabilizer), active = hit call of the paper
testConditions: stock concentration (mM; final µM = stock mM x 1): 10; 24 h
Binary classification by PARP1 L713F-nLuc/akaLuc ratio, with 1 as an inclusive lower bound for 1; all other cases are -1.

{"molecule": "Cc1cc(Nc2cc(N3CCN(C)CC3)nc(Sc3ccc(NC(=O)C4CC4)cc3)n2)n[nH]1 [Tozasertib (VX-680, MK-0457)]", "studyTarget": "PARP1 L713F-nLuc biosensor (HCT116) (UniProt P09874)", "answerLabel": -1}
{"molecule": "COc1cc2ncnc(Nc3cc(Br)c(O)c(Br)c3)c2cc1OC", "studyTarget": "PARP1 L713F-nLuc biosensor (HCT116) (UniProt P09874)", "answerLabel": 1}
{"molecule": "CCCCC(=O)OCC(=O)[C@]1(O)Cc2c(O)c3c(c(O)c2[C@@H](O[C@H]2C[C@H](NC(=O)C(F)(F)F)[C@H](O)[C@H](C)O2)C1)C(=O)c1c(OC)cccc1C3=O [Valrubicin]", "studyTarget": "PARP1 L713F-nLuc biosensor (HCT116) (UniProt P09874)", "answerLabel": 1}
{"molecule": "O=C(O)CC1CC(c2ccccc2)=NO1 (configuration not stated)", "studyTarget": "PARP1 L713F-nLuc biosensor (HCT116) (UniProt P09874)", "answerLabel": 1}
{"molecule": "CC[C@H](C)n1cc(C)c2c(C(=O)NCc3c(C)cc(C)[nH]c3=O)cc(-c3ccc(N4CCNCC4)nc3)cc21", "studyTarget": "PARP1 L713F-nLuc biosensor (HCT116) (UniProt P09874)", "answerLabel": 1}
{"molecule": "Cc1ccc(NC(=O)c2ccc(CN3CC[C@H](N(C)C)C3)c(C(F)(F)F)c2)cc1Nc1nccc(-c2cncnc2)n1 [Bafetinib (INNO-406)]", "studyTarget": "PARP1 L713F-nLuc biosensor (HCT116) (UniProt P09874)", "answerLabel": -1}
{"molecule": "CCN(CC)CCNC(=O)c1c(C)[nH]c(/C=C2\\C(=O)Nc3ccc(-c4csc(-c5ccccc5)n4)cc32)c1C [Amcasertib (BBI503)]", "studyTarget": "PARP1 L713F-nLuc biosensor (HCT116) (UniProt P09874)", "answerLabel": -1}
